# Tgt: recombinant human Siglec-10 protein (Siglec-10 antigen coated in ELISA) (Homo sapiens (Human)., UniProt Q96LC7)
# Sequence (Q96LC7 17-550): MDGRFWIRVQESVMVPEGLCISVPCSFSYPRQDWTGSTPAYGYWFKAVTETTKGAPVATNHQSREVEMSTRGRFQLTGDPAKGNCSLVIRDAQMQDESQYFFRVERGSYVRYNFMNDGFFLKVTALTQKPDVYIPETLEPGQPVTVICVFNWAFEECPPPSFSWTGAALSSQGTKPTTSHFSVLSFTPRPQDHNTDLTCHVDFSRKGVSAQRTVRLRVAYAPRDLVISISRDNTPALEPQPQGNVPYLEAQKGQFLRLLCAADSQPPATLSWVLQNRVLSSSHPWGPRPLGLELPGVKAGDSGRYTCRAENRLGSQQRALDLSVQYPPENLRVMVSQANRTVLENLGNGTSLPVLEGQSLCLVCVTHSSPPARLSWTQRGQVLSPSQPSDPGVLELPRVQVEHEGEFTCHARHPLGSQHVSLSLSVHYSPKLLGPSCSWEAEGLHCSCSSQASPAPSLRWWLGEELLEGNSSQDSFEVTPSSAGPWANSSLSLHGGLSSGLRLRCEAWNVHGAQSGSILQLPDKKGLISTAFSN
Value Kind: binding result

>>> result("38B2G5 (antibody, V domains shown) VH: QVQLQQSGAEVAKPGASVKLSCKASGYTFTSYWMHWVKQRPGQGLEWIGYINPSNNYTKYNQKFNDKATLTADKSSSTAYMQLSSLTYEDSALYYCARVYYYGNSPAWFAYWGQGTLVTVSA VL: QIVLSQSPAILSASPGEKVTMTCRASSSVSYMHWYQQKPGSSPKPWIYATSNLASGVPARFSGSGSGTSYSLTISRVEAEDAATYYCQQWTSNPPTFGGGTKLEIK")
"binds"
>>> result("38D6A8 (antibody, V domains shown) VH: EVKLVESGGGLVQPGGSLSLSCAASGFTFTDYYMSWVRQPPGKALEWLGFIRNKASGYTTEYSASVKGRFTISRDNSQNILYLQMNALRAEDGATYYCVRYISLWLLGYFDVWGTGTTVTVSS VL: DVQITQSPSYLAASPGETITINCRASKSISKYLAWYQEKPGKTNKLLIYSGSTLQSGIPSRFSGSGSGTDFTLTISSLEPEDFAMYYCQQHNDYPLTFGAGTKLELK")
"binds"
